// activity change, negative = inhibition lookup, one value per entry
Assay: AP1 Signaling Pathway (AID 357);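 further: ME-180 reporter cells stimulated with EGF at its EC50 level; on the % scale 0 is the no-effect control and ±100 the full control effect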
Settings: ME-180 (cervical carcinoma) AP-1-bla reporter, EGF-induced, beta-lactamase ratio, 5 h; at 7.69 µM (top of the series) unless noted
Results filed as inconclusive are left out.
Answer with a number only, understood to be in %.

Some solved entries appear below for comparison.
[[record]]
molecular_string = "COc1ccc(NC(=O)N2CC[C@@]3(CCCN(C(=O)c4cnccn4)C3)C2)cc1"
assay_endpoint = "activity change, negative = inhibition"
readout_value = -10.4

[[record]]
molecular_string = "Clc1ccccc1-c1ccc2ncnc(N3CCNCC3)c2c1"
assay_endpoint = "activity change, negative = inhibition"
readout_value = 19.1

[[record]]
molecular_string = "CC(=O)NCCNc1ncncc1-c1ccc(N(C)C)cc1"
assay_endpoint = "activity change, negative = inhibition"
readout_value = -11.6

[[record]]
molecular_string = "O=c1c(-c2ccccc2)nc2cnc(Nc3ccccc3)nc2n1Cc1cccs1"
assay_endpoint = "activity change, negative = inhibition"
readout_value = -15.4


Look up and report measured activity change, negative = inhibition for this entry: `Cn1cccc1C(=O)N1CCC[C@@]2(CCN(Cc3ccccc3)C2)C1`
-8.23

Give the reported activity change, negative = inhibition for this compound. `Cc1nc2cnc(N3CCNCC3)nc2n(Cc2cccs2)c1=O`
-0.143
